# MIC Enterococcus avium (GC 4558) listing for each entry below
- System: Enterococcus sp.
- PROTOCOL DESCRIPTION: in vitro antibacterial evaluation, MIC by broth dilution
- Type: cell-based
- RECORDED CONDITIONS: strain GC 4558; broth dilution, 18 hours at 35° C.
Numbered stars: 1 amine (or outer) side, 2 acyl side, 3 side chain; on linkers, the order of the positions; unused ones are H or OH. Square brackets hold non-standard residues; d marks the D form. Peptide text beside a SMILES is read from it. ξ: configuration not given here. X1 = N=C1NCC(C(O)C(N[*:1])C(=O)[*:2])N1C1OC(CO)C(O)C(O)C1O; ξEnduracididine(βξ-OH,4'ξ) = N=C1NCC(C(O)C(N)C(=O)O)N1; Tyr(3,5-Br2) = N[CH](Cc1cc(Br)c(O)c(Br)c1)C(=O)O; ξPhe(βξ-Me) = CC(c1ccccc1)C(N)C(=O)O
REPORTED PROPERTY: MIC Enterococcus avium (GC 4558) (µg/mL)

MOLECULE: CC(c1ccccc1)C1NC(=O)CNC(=O)C(CO)NC(=O)C(C(O)C2CNC(=N)N2C2OC(CO)C(O)C(O)C2O)NC(=O)C(C(O)C2CNC(=N)N2)NC(=O)C(Cc2ccc3oc(-c4cccc(F)c4)nc3c2)NC1=O (centres unmarked)
REPORTED PROPERTY: MIC Enterococcus avium (GC 4558)
RELATION SYMBOL: =
OBSERVED RESULT: 16
--
MOLECULE: CC(c1ccccc1)C1NC(=O)CNC(=O)C(CO)NC(=O)C(C(O)C2CNC(=N)N2C2OC(CO)C(O)C(O)C2O)NC(=O)C(C(O)C2CNC(=N)N2)NC(=O)C(Cc2ccc(OC3OC(CO)C(OC4OC5COC(c6ccc(C=Cc7ccccc7)cc6)OC5C(O)C4O)C(O)C3O)cc2)NC1=O (centres unmarked)
REPORTED PROPERTY: MIC Enterococcus avium (GC 4558)
RELATION SYMBOL: =
OBSERVED RESULT: 4
--
MOLECULE: Cc1ccc(Oc2cccc(-c3nc4cc(CC5NC(=O)C(C(C)c6ccccc6)NC(=O)CNC(=O)C(CO)NC(=O)C(C(O)C6CNC(=N)N6C6OC(CO)C(O)C(O)C6O)NC(=O)C(C(O)C6CNC(=N)N6)NC5=O)ccc4o3)c2)cc1 (centres unmarked)
REPORTED PROPERTY: MIC Enterococcus avium (GC 4558)
RELATION SYMBOL: =
OBSERVED RESULT: 4
--
MOLECULE: CCC(=O)Nc1cc(CC2NC(=O)C(C(C)c3ccccc3)NC(=O)CNC(=O)C(CO)NC(=O)C(C(O)C3CNC(=N)N3C3OC(CO)C(O)C(O)C3O)NC(=O)C(C(O)C3CNC(=N)N3)NC2=O)ccc1O (centres unmarked)
REPORTED PROPERTY: MIC Enterococcus avium (GC 4558)
RELATION SYMBOL: =
OBSERVED RESULT: 128
--
MOLECULE: CC(c1ccccc1)C1NC(=O)CNC(=O)C(CO)NC(=O)C(C(O)C2CNC(=N)N2C2OC(CO)C(O)C(O)C2O)NC(=O)C(C(O)C2CNC(=N)N2)NC(=O)C(Cc2cc(Br)c(O)c(Br)c2)NC1=O (stereo not drawn) [Example 3] (cyclo(G[ξPhe(βξ-Me)][Tyr(3,5-Br2)][ξEnduracididine(βξ-OH,4'ξ)][X1]S); configuration not given here)
REPORTED PROPERTY: MIC Enterococcus avium (GC 4558)
RELATION SYMBOL: >
OBSERVED RESULT: 128

Origin of the recorded values: patent US6914045B2
